# testSystem: MyD88^TIR (Homo sapiens, UniProt Q99836)
# Construct: MyD88 (residues 148–296); 6xHis; made in house; host or cells: E. coli BL21 (DE3)
# Sequence (Q99836 148-296): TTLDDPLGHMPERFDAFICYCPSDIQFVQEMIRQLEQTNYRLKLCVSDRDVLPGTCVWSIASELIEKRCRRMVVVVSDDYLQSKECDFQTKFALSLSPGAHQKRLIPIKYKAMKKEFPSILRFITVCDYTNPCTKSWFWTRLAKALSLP
# assayName: T‐Surf phage library (P8 and P3) selection against MyD88^TIR, four rounds, NGS read counts
# Type: binding
# experimentalConditions: P8 library, selection against MyD88, rank by count before grouping
readoutName: P8_MyD88 Rank (before)

- seqText: "YNLAHYLYVSMRASGI"
  P8_MyD88 Rank (before): 2132
- seqText: "CALDELLHILHARELF"
  P8_MyD88 Rank (before): 1346
- seqText: "DWEWDYRLPNLEGPAC"
  P8_MyD88 Rank (before): 2487
- seqText: "DWEWEYLRPNLEGTAG"
  P8_MyD88 Rank (before): 2488
- seqText: "YITRFDDIQQIELFWD"
  P8_MyD88 Rank (before): 2121

1 = DPQDLDWIYERLVCLF
2 = WALDELLQILHARRTE
Input: Lab note: check whether 1 or 2 has the lower measured P8_MyD88 Rank (before). Mark your answer with the label of the selected entry.
Output: 2

A = DPQELQWIYERLVSLF
B = WALDELLKILCANKTM
Input: In the pair A and B , the larger recorded P8_MyD88 Rank (before) belongs to which? Record your answer as the label of the chosen record.
Output: A

a = MFGGDTFHDFLDLLA
b = DGGWDYLLPNVEGPAC
Input: Decide: a or b , by lowest recorded P8_MyD88 Rank (before). // return label of chosen record
Output: b

1 = DPQELDWIYQRLVSLF
2 = WALDVLLQFLHARELF
Input: I'd appreciate it if you could identify which of 1 and 2 has the greater P8_MyD88 Rank (before). // caller expects the label of the chosen entry
Output: 1
(1: 2987, 2: 1412)

I = MEANSSRIWHRLLYSV
II = VANILGYHCIDWEHFVGIED
Input: Larger number for P8_MyD88 Rank (before): I , or II ? Selection: enter the item's label.
Output: I
(I: 3687, II: 2169)

a = PQDLEWFYERGEPDS
b = YAASPWWLVELVQIVG
Input: Field: entry with larger P8_MyD88 Rank (before) (options a / b ). // respond with label for picked entry
Output: a

I = DYASNTFLLRELLQIA
II = YAASPWWFDELVHILW
Input: Of I versus II , which is the one with smaller reported P8_MyD88 Rank (before)? Pick one and reply with its label.
Output: II

1 = YPQELDWCYERLVSLL
2 = DSLIWDRLLYSIKVTE
Input: Record comparison, field P8_MyD88 Rank (before): mark the lower of 1 and 2 . Reply briefly: the label of your chosen item.
Output: 1
(1: 2102, 2: 3124)
